Source listed as ChEMBL document CHEMBL4145688.

test: physchem; details: aqueous buffer, pH 7.4
Description: Solubility in aqueous buffer at pH 7.4
PROPERTY NAME: solubility (µM)

Answered cases to consult:
| MOLECULE | solubility / µM |
| --- | --- |
| CCS(=O)(=O)c1ccc(CC(=O)Nc2cc(-c3cc(C#N)cnc3OCC(F)(F)F)cs2)cc1 | 0.2 |
| CCS(=O)(=O)c1ccc(CC(=O)Nc2cc(-c3cccnc3OCc3ccc(OC(F)(F)F)cc3)cs2)cc1 | 0.7 |

(A) CCS(=O)(=O)c1ccc(CC(=O)Nc2cc(-c3cccnc3Oc3ccc(OC(F)(F)F)cc3)cs2)cc1
(B) CCS(=O)(=O)c1ccc(C(NC(C)=O)C(=O)Nc2cc(-c3cc(C#N)cnc3OCC(F)(F)F)cs2)cc1 (stereo unspecified)
(C) CCS(=O)(=O)c1ccc(C(NC(C)=O)C(=O)Nc2cc(-c3cc(C#N)cc(F)c3OC)cs2)cc1 (stereo unspecified)
(D) CNS(=O)(=O)c1ccc(CC(=O)Nc2cc(-c3cc(C#N)cnc3OC)cs2)cc1
Write the entries in order, lowest recorded solubility first. # respond with the labels, arranged in the requested order D, A, B, C

* * *

Target: Nuclear receptor ROR-gamma (Homo sapiens)
Sequence (P51449 whole entry): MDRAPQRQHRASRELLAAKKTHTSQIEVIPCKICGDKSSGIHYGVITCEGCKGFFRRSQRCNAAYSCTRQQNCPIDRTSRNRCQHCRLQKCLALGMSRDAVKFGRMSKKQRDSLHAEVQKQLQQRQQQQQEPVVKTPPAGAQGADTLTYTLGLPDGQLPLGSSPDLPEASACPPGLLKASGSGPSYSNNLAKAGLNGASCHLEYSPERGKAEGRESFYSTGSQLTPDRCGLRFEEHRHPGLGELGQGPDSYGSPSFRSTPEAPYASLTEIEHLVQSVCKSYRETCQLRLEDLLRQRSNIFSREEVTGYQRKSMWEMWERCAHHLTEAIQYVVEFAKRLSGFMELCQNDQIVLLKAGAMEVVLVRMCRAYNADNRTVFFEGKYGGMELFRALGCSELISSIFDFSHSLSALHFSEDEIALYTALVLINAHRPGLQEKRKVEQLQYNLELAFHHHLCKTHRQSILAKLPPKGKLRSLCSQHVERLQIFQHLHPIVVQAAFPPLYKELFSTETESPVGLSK
Experiment: Inverse agonist activity at RORgammat in human TH17 cells assessed as inhibition of IL17 release incubated for 4 days by HTRF assay
Format: cell-based
PROPERTY NAME: IC50 (nM)

| MOLECULE | MEASUREMENT TARGET | DISPLAY UNIT | REPORTED MEASUREMENT |
| --- | --- | --- | --- |
| CCS(=O)(=O)c1ccc(CC(=O)Nc2cc(-c3cccnc3OC/C=C/c3ccccc3)cs2)cc1 | Nuclear receptor ROR-gamma (Homo sapiens) | nM | 25 |
| CCS(=O)(=O)c1ccc([C@@H](NC(C)=O)C(=O)Nc2cc(-c3cccnc3OCc3ccc(OC(F)(F)F)cc3)cs2)cc1 | Nuclear receptor ROR-gamma (Homo sapiens) | nM | 11 |

(P) CCS(=O)(=O)c1ccc(C(NC(C)=O)C(=O)Nc2cc(-c3cc(C#N)cnc3OC)cs2)cc1 (centres undefined)
(Q) CCS(=O)(=O)c1ccc(C(NC(C)=O)C(=O)Nc2cc(-c3cccnc3Oc3ccc(C#N)cc3)cs2)cc1 (centres undefined)
Quick check, higher IC50 between P and Q ? Refer to your chosen entry by its label in the reply. P

* * *

experiment: Volume of distribution at steady state in Han Wistar rat at 0.5 mg/kg, iv or 1 mg/kg, po; type: ADME, organism-based; settings: in vivo, read-out: Vdss
PROPERTY NAME: Vd (L/kg)

| COMPOUND | PROPERTY NAME | DISPLAY UNIT | REPORTED MEASUREMENT |
| --- | --- | --- | --- |
| CCS(=O)(=O)c1ccc(C(NC(C)=O)C(=O)Nc2cc(-c3cc(C#N)cc(F)c3OC)cs2)cc1 (stereo unspecified) | Vd | L/kg | 0.34 |

(A) CCS(=O)(=O)c1ccc(CC(=O)Nc2cc(-c3cccnc3OCc3ccc(OC(F)(F)F)cc3)cs2)cc1
(B) CCS(=O)(=O)c1ccc(CC(=O)Nc2cc(-c3cc(C#N)cnc3OCC(F)(F)F)cs2)cc1
(C) CCS(=O)(=O)c1ccc(CC(=O)Nc2cc(-c3cc(C#N)cc(F)c3OC)cs2)cc1
(D) CCS(=O)(=O)c1ccc([C@@H](NC(C)=O)C(=O)Nc2cc(-c3cccnc3OCc3ccc(OC(F)(F)F)cc3)cs2)cc1
Thanks in advance: please rank these 4 entries by Vd, highest to lowest. # respond with the labels, arranged in the requested order A, D, C, B
(A: 3.8 L/kg, D: 2.4 L/kg, C: 0.48 L/kg, B: 0.23 L/kg)

* * *

molecular target: Nuclear receptor ROR-gamma (Homo sapiens, UniProt P51449)
PROPERTY NAME: IC50 (nM)

(I) CCS(=O)(=O)c1ccc(CC(=O)Nc2cc(-c3cccnc3OC/C=C/c3ccccc3)cs2)cc1
(II) CCS(=O)(=O)c1ccc(C(NC(C)=O)C(=O)Nc2cc(-c3cccnc3Oc3ccc(C#N)cc3)cs2)cc1 (stereo not drawn)
Please compare: I and II . Report which one has the smaller IC50 value. Refer to your chosen entry by its label in the reply. I

(a) CCS(=O)(=O)c1ccc(CC(=O)Nc2nc(-c3cccc(Cl)c3)c(C(=O)c3ccccc3Cl)s2)cc1
(b) CCS(=O)(=O)c1ccc([C@@H](NC(C)=O)C(=O)Nc2cc(-c3cccnc3OCc3ccc(OC(F)(F)F)cc3)cs2)cc1
(c) CCS(=O)(=O)c1ccc(CC(=O)Nc2cc(-c3cccnc3OC)cs2)cc1
Thanks in advance: please rank these 3 entries by IC50, highest to lowest. # respond with the labels, arranged in the requested order c, b, a
(c: 110 nM, b: 34 nM, a: 22 nM)

* * *

assay: Unbound fraction in human plasma by equilibrium dialysis; format: ADME, cell-free
PROPERTY NAME: fraction unbound

Answered cases to consult:
| MOLECULE | fraction unbound |
| --- | --- |
| CCS(=O)(=O)c1ccc(CC(=O)Nc2cc(-c3cc(C#N)cnc3OC)cs2)cc1 | 0.0009 |
| CCS(=O)(=O)c1ccc([C@@H](NC(C)=O)C(=O)Nc2cc(-c3cccnc3OCc3ccc(OC(F)(F)F)cc3)cs2)cc1 | 0.001 |

(a) CCS(=O)(=O)c1ccc(CC(=O)Nc2cc(-c3cc(C#N)ccc3OC)cs2)cc1
(b) CCS(=O)(=O)c1ccc(CC(=O)Nc2cc(-c3cc(C#N)cnc3OCC(F)(F)F)cs2)cc1
(c) CCS(=O)(=O)c1ccc(C(NC(C)=O)C(=O)Nc2cc(-c3cc(C#N)cnc3OCC(F)(F)F)cs2)cc1 (stereo unspecified)
(d) CCS(=O)(=O)c1ccc(CC(=O)Nc2cc(-c3cccnc3OCc3ccccc3)cs2)cc1
Thanks in advance: please rank these 4 entries by fraction unbound, highest to lowest. # respond with the labels, arranged in the requested order c, a, b, d

* * *

target: Nuclear receptor ROR-gamma (Homo sapiens)
pIC50: −log10 of the molar value.
PROPERTY NAME: pIC50

| COMPOUND | pIC50 |
| --- | --- |
| CCS(=O)(=O)N1CCC(CC(=O)Nc2cc(-c3cc(C#N)cnc3OC)cs2)CC1 | 5.49 |
| CCS(=O)(=O)c1ccc(CC(=O)Nc2cc(-c3cncnc3OC)cs2)cc1 | 6.15 |
| CCS(=O)(=O)c1ccc(CC(=O)Nc2cc(-c3cccnc3OCc3ccc(C#N)cc3)cs2)cc1 | 7.52 |
| CC[S+]([O-])c1ccc(CC(=O)Nc2cc(-c3cc(C#N)cnc3OC)cs2)cc1 (stereo not given) | 6.36 |
| CCOc1ncccc1-c1csc(NC(=O)Cc2ccc(S(=O)(=O)CC)cc2)c1 | 7.10 |

(I) CCS(=O)(=O)c1ccc(C(NC(C)=O)C(=O)Nc2cc(-c3cc(C#N)cnc3OCC(F)(F)F)cs2)cc1 (stereo not given)
(II) CCS(=O)(=O)c1ccc(CC(=O)Nc2cc(-c3cccnc3OCc3ccc(C(=O)OC)cc3)cs2)cc1
Quick check, higher pIC50 between I and II ? Refer to your chosen entry by its label in the reply. II
(II: 7.68, I: 7.14)

(I) CCS(=O)(=O)c1ccc(C(NC(C)=O)C(=O)Nc2cc(-c3cc(C#N)cnc3OC)cs2)cc1 (stereo not given)
(II) CCS(=O)(=O)c1ccc(CC(=O)Nc2cc(-c3cc(C#N)ccc3OC)cs2)cc1
Please compare: I and II . Report which one has the smaller pIC50 value. Refer to your chosen entry by its label in the reply. I

(A) CCS(=O)(=O)c1ccc(C(NC(C)=O)C(=O)Nc2cc(-c3cccnc3OCc3ccc(OC(F)(F)F)cc3)cs2)cc1 (stereo not given)
(B) CCS(=N)(=O)c1ccc(CC(=O)Nc2cc(-c3cc(C#N)ccc3OC)cs2)cc1 (stereo not given)
(C) CNS(=O)(=O)c1ccc(CC(=O)Nc2cc(-c3cc(C#N)cnc3OC)cs2)cc1
(D) CCS(=O)(=O)c1ccc([C@H](NC(C)=O)C(=O)Nc2cc(-c3cccnc3OCc3ccc(OC(F)(F)F)cc3)cs2)cc1
Write the entries in order, lowest recorded pIC50 first. # respond with the labels, arranged in the requested order D, B, A, C
